Origin of the recorded values: patent EP3212201B1

- subject.of.test: AURKA (Aurora A) (Homo sapiens)
- Sequence (O14965 whole entry, species assumed): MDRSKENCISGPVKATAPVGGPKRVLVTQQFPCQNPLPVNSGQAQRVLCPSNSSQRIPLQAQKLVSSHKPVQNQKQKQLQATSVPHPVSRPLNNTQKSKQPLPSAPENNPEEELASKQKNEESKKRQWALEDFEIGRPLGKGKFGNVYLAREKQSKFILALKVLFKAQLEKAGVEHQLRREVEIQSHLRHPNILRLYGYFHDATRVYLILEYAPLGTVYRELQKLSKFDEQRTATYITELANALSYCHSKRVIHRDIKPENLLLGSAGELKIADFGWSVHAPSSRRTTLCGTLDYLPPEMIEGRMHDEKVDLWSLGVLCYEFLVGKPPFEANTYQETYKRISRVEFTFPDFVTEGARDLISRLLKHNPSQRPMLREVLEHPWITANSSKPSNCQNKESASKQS
- test.name: FRET-based coupled-enzyme protein kinase inhibition assay
- Type: biochemical
- test.settings: compound at 10 µM, 1% DMSO
Below is a list of entries, each paired with its recorded inhibition at 10 µM value.

{"compound": "CS(=O)(=O)N1CC2(CCN(C(=O)OC[C@H]3O[C@@H](n4cnc5c(N)ncnc54)[C@H](O)[C@@H]3O)CC2)c2ccccc21 [Compound C98]", "inhibition at 10 µM / %": 0}
{"compound": "Nc1ncnc2c1ncn2[C@@H]1O[C@H](COC(=O)N2CCC(Cc3ccc(F)cc3)C2)[C@@H](O)[C@H]1O (stereo partly drawn) [Compound C66]", "inhibition at 10 µM / %": 4}
{"compound": "Nc1ncnc2c1ncn2[C@@H]1O[C@H](COC(=O)N2CCN(Cc3ccccc3)CC2CO)[C@@H](O)[C@H]1O (stereo partly drawn) [Compound C13]", "inhibition at 10 µM / %": -1}
